# Assay comment: NCI Yeast Anticancer Drug Screen. Data for the mlh1 rad18 strain (AID 175)
# Reported conditions: S. cerevisiae mlh1 rad18 strain growth inhibition; at 50.0 µM (retest, dose inferred, filed as 5.0)
Compounds without any hit were thinned out: in the full panel of roughly 79,000, 15% have a hit. Calls of active or inactive are those of the source. No stated cut-off is given here; in the data, active means growth inhibition above about 70%; inactive means the rest.
Give your call using only these classes: active, inactive

Just curious, what result did `CCOC(=O)c1c[nH]c2cc(C(F)(F)F)ccc2c1=O` get here?
active

What did this assay record as the result for COc1ccc2c(c1)C(Cc1ccc(Oc3ccc(CC4c5cc(OC)ccc5CC[N+]4(C)C)cc3)cc1)[N+](C)(C)CC2 (stereo not given) ?
active

Query: recorded result category for `O=[N+]([O-])c1c(Cl)nc2ccccn12` in this test
inactive

---

The following compounds are shown together with reported growth inhibition values.
# Assay comment: NCI Yeast Anticancer Drug Screen. Data for the bub3 strain (AID 167)
# Reported conditions: S. cerevisiae bub3 mutant strain, at 50.0 µM (retest, dose inferred, filed as 5.0), active compounds read high
The panel holds about 79,000 compounds, 15% with a hit somewhere; the sample as a whole holds those more often.
Output spec: scalar in %, unitless text.

Compound	Experimental readout	Reported result
O=[N+]([O-])Cc1cnc2nncn2n1	growth inhibition	99

// recorded growth inhibition for `C=CCN(CC=C)C(CC(=O)C(C)(C)C)=NCC` : 3

Looking up CC(NNC(=S)N1CCN(c2ccccn2)CC1)c1nccc2ccccc12 (stereo not given) , I found its growth inhibition recorded as 99

growth inhibition reported for this compound COc1cccc(NC(=S)C(C#N)C(=O)Nc2cccc(C(F)(F)F)c2)c1 (stereo not given) : 95

---

# Assay comment: NCI Yeast Anticancer Drug Screen. Data for the rad50 strain (AID 155);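 further: 0% = growth of vehicle-only cultures of the same strain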
# Reported conditions: S. cerevisiae rad50 strain growth inhibition; at 5.0 µM (retest, dose inferred, filed as 0.5); active compounds read high
The panel holds about 79,000 compounds, 15% with a hit somewhere; the sample as a whole holds those more often.
Experimental readout: growth inhibition (%)
# unit: % | format: bare number

Some compounds with known growth inhibition results, for comparison:
Compound	Display unit	growth inhibition
O=C1c2cc3c(cc2CC12Cc1ccccc1C2)CCC3	%	23
c1ccc(-c2conc2-c2ccccc2)cc1	%	-22
CC(=O)OCC1OC(n2c(=S)n(-c3ccccc3)c(=O)c3ccccc32)C(OC(C)=O)C(OC(C)=O)C1OC(C)=O (configuration not stated)	%	27

Sure, the documented growth inhibition for `O=C1CSC(=S)N1c1ccc(F)c(F)c1` is 4

Per the records, this compound ( `Cc1nc2cc(Cl)ccc2n1-c1ccccc1` ) has growth inhibition equal to 39

Lab book: growth inhibition of `C=CCCC(=O)O` noted as 6

Looking up O=[N+]([O-])c1ccc(Cl)c(C2CC(c3cccc4ccccc34)=Nc3ccccc3S2)c1 (configuration not stated) , I found its growth inhibition recorded as 0

Measured growth inhibition, CC1(c2ccccc2)c2ccccc2N(c2ccccc2)C(=O)C1O (configuration not stated) : 98

Documented growth inhibition of `CN(C)/C=C1\CCc2ccc([N+](=O)[O-])cc2C1=O` : 19

Recorded result, `Nc1ccc(Cn2ccc3c4c(N)nc(N)nc4ccc32)cc1` , growth inhibition: 14

In plain terms, CC(=O)OC(c1ccccc1)c1ccc(Cl)cc1 (configuration not stated) has a documented growth inhibition of 3

Summary for this compound, `N#Cc1c(/N=C/c2ccccc2Cl)sc2c1CCC2` : growth inhibition is 18

---

# Assay comment: NCI Yeast Anticancer Drug Screen. Data for the mec2-1 strain (AID 157)
# Reported conditions: S. cerevisiae mec2-1 strain, at 50.0 µM (retest, dose inferred, filed as 5.0), active compounds read high
About 79,000 compounds went through this panel and 15% of them were active in at least one assay; those are over-represented in the sample as a whole. Where a SMILES comes first, the peptide text is derived from it. [ ]: non-standard residue; d: D form. ξ: configuration not given here. ξV = CC(C)C(N)C(=O)O
Returns one of criterion met or criterion not met; criterion met when growth inhibition is >= 40%.

For orientation, consider the following solved cases.
Compound	Category label
COC(=O)C1OC(OC(C)=O)C(OC(C)=O)C(OC(C)=O)C1OC(C)=O (configuration not stated)	criterion not met
O=C1c2ccccc2-n2c1nc1ccccc1c2=O	criterion met
c1ccc(-c2conc2-c2ccccc2)cc1	criterion met

Does the reported growth inhibition for `CN=c1sc2nc(C#N)c(C#N)nc2n1C` fall at or above the 40% mark?
criterion met

Given the entry CC(C)C(NC(=O)CN)C(=O)O (configuration not stated) (H-Gly-[ξV]-OH) , answer whether its growth inhibition meets or surpasses 40%.
criterion not met

Decide: growth inhibition of `O=C(COc1ccc(Cl)cc1Cl)Nc1cccc(C(F)(F)F)c1` >= 40%?
criterion not met

Reported growth inhibition at or above 40%? `S=c1nc[nH]c2[nH]ccc12`
criterion not met

Does `COc1cc(O)ccc1C(=S)SC` have a reported growth inhibition of at least 40%?
criterion not met

Confirm if growth inhibition reported for the compound `O=C(O)C#CC(=O)O` is 40% or above.
criterion not met

Please tell me: is the compound CS(=O)(=O)OC1CC(n2ccc(=O)[nH]c2=O)OC1COC(c1ccccc1)(c1ccccc1)c1ccccc1 (configuration not stated) at or over 40% in terms of growth inhibition?
criterion met

Please check the record `O=C(NNC(=O)c1ccccc1O)c1ccccc1O` and state if its growth inhibition is at or above 40%.
criterion not met

Does growth inhibition meet or surpass 40% for CC(=O)OC1OC(CI)C(OC(C)=O)C(OC(C)=O)C1OC(C)=O (configuration not stated) ?
criterion not met

Is growth inhibition for `COC(=O)CSC(=S)N1CCOCC1` at or above 40%?
criterion not met

---

# Assay comment: NCI Yeast Anticancer Drug Screen. Data for the sgs1 mgt1 strain (AID 161);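 further: 0% = growth of cultures given vehicle only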
# Reported conditions: S. cerevisiae sgs1 mgt1 strain, at 50.0 µM (retest, dose inferred, filed as 5.0)
This is part of a sample that, as a whole, favours compounds with a hit. Of some 79,000 tested, about 15% had one in any assay. Calls of active or inactive are those of the source. Cut-off read from the data, not from the text of the source: active = growth inhibition above about 70%; inactive = the rest.
Field 'call' accepts active, inactive

Previously resolved entries follow.
Compound	Category label
Cc1nc2ccccc2cc1CCl	active
O=C(/C=C/c1ccc(Cl)cc1)NC1C=Nc2ccc([N+](=O)[O-])cc2NC1=O (stereo not drawn)	active
CC1(c2ccccc2)c2ccccc2N(c2ccccc2)C(=O)C1O (stereo not drawn)	active
C[C@@H](O)[C@H]1CC[C@H]2[C@@H]3CCC4=C/C(=N/O)CC[C@]4(C)[C@H]3CC[C@]12C	inactive
COC(=O)c1nnn(-c2ccc(S(N)(=O)=O)cc2)c1N	inactive

Please find the next compound below.
Assay result, entry CCN1CCC(O)(c2ccc(Oc3ccccc3)cc2)C(C(=O)c2ccc(Oc3ccccc3)cc2)C1 (stereo not drawn) — outcome?
inactive

---

molecules and their reported growth inhibition
# Assay comment: NCI Yeast Anticancer Drug Screen. Data for the rad50 strain (AID 155);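 further: 0% = growth of vehicle-only cultures of the same strain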
# Reported conditions: S. cerevisiae rad50 strain growth inhibition; at 50.0 µM; active compounds read high
The panel holds about 79,000 compounds, 15% with a hit somewhere; the sample as a whole holds those more often. Active and inactive are the calls of the source. Cut-off read from the data, not from the text of the source: active = growth inhibition above about 70%; inactive = the rest.

Reference set (6 entries):
Molecule	growth inhibition
OC1(C2C=CC=C2)c2ccccc2C=Cc2ccccc21	91% (active)
Fc1ccc(/C=C2\COCC3=C2NC(=S)NC3c2ccc(F)cc2)cc1 (configuration not stated)	88.6% (active)
Cc1ccc(NCCN(C)C)c2c(=O)c3cc(O)ccc3sc12	88.7% (active)
COc1cc(/C=C/C(=O)NCCCCN=[N+]=[N-])ccc1OCc1ccccc1	89.8% (active)
CCCCCCCCCC(=O)c1ccc(O)c(O)c1O	90.3% (active)
CCCN(CCC)C(=S)N/N=C/c1ccccn1	90.5% (active)

Turning now to a further molecule:
The recorded growth inhibition for CC1C[C@]2(C)C(=O)Nc3ccccc3[C@@H]2Nc2ccccc21 (some centres not stated) is 91.1% (active)

---

# Assay comment: NCI Yeast Anticancer Drug Screen. Data for the bub3 strain (AID 167)
# Reported conditions: S. cerevisiae bub3 mutant strain, at 5.0 µM (retest, dose inferred, filed as 0.5), active compounds read high
Compounds without any hit were thinned out: in the full panel of roughly 79,000, 15% have a hit.
Collected growth inhibition values appear next to each entry.
Respond with the bare value in %.

Molecule	growth inhibition / %
CCN(CC)CCCn1c2cc(=O)c(=O)cc-2[nH]c2cc(C)ccc21	3
CC1(C)CC(=O)C2=C(C1)OC1=C(CC(C)(C)CC1=O)C2c1ccccc1Cl (stereo not drawn)	-11
O=C(O)c1c2ccccc2nc2[nH]c(=O)[nH]c(=O)c12	-1
CCCCCCCCCCCCc1ccc(S(=O)(=O)O)cc1.[Cu+2]	-9
NNC(=O)c1ccc(NC(=O)CSc2nc3ccccc3s2)cc1	52

# molecule CCCCCCCCCCNC1CC(OC2CC(O)(C(O)CO)Cc3c(O)c4c(c(O)c32)C(=O)c2c(OC)cccc2C4=O)OC(C)C1O (stereo not drawn) ; its growth inhibition = 49

What the record says about `CN(C)CCCN=c1c2ccccc2n(O)c2cccc([N+](=O)[O-])c12` : growth inhibition is 9

Record `CCCCCCCCOC(=O)c1cc(O)c(O)c(O)c1` . Reported growth inhibition: 70
